Target or system mTOR (Homo sapiens, UniProt P42345): recorded IC50 listed per item.
The reply should be a number in nM, with the unit left off.

{"MOLECULE": "O=c1cc(N2CCOCC2)oc2c(-c3ccccc3)cccc12 [LY294002, 2-morpholino-8-phenyl-4H-chromen-4-one, reference compound]", "MEASUREMENT TARGET": "mTOR (Homo sapiens, UniProt P42345)", "IC50 (nM)": 1060}

Here's the next entry for you.
[Q] Answer with IC50 of O=c1cc(N2CCOCC2)oc2c(-c3ccccc3)csc12 measured for mTOR (Homo sapiens, UniProt P42345).
[A] 610

----------
- Test system: AKT Ser473 phosphorylation in renal cell carcinoma (786-O) Cell Line
- METHOD DESCRIPTION: pAKT Ser473 ELISA in 786-O cells stimulated by Bv8, VEGF, IGF
- Type: cell-based
- CONDITION LABEL: Homo sapiens, 786-0, 786-O; stimulant IGF; read-out: Concentration Required to Inhibit pAKT to Half-maximal Levels
EXPERIMENTAL READOUT: IC50 (µM)
Just the number please, in µM, no unit attached.

{"SMILES RECORD": "CCOC(=O)c1ccc(-c2csc3c(=O)cc(N4CCOCC4)oc23)cc1", "UNITS LABEL": "µM", "RECORDED VALUE": 4.39}

[Q] Using the record for O=c1cc(N2CCOCC2)oc2c(-c3ccc4c(c3)OCCO4)csc12 , state its measured IC50.
[A] 2.6

----------
- Test system: PC3 cells
- METHOD DESCRIPTION: PC3 prostate cancer cell proliferation (WST)
- Assay type: cell-based
- CONDITION LABEL: Homo sapiens, PC-3; 72 hours; read-out: IC50 PC3 Proliferation
pIC50: recorded values
For clarity, pIC50 is expressed as the negative log10 of concentration in mol/L.

Example molecules with recorded pIC50:
{"SMILES RECORD": "O=c1cc(N2CCOCC2)oc2c(-c3cccs3)csc12", "pIC50": 5.36}
{"SMILES RECORD": "CN(C)c1ccc(-c2csc3c(=O)cc(N4CCOCC4)oc23)cc1", "pIC50": 5.70}
{"SMILES RECORD": "O=c1cc(N2CCOCC2)oc2c(-c3cccc(Cl)c3)csc12", "pIC50": 5.46}
{"SMILES RECORD": "CN1CCOc2cc(-c3csc4c(=O)cc(N5CCOCC5)oc34)ccc21", "pIC50": 5.98}
{"SMILES RECORD": "O=c1cc(N2CCOCC2)oc2c(-c3cccnc3)csc12", "pIC50": 4.96}
{"SMILES RECORD": "COc1cccc(-c2csc3c(=O)cc(N4CCOCC4)oc23)c1", "pIC50": 5.32}
{"SMILES RECORD": "CN(C)c1ccc(NC(=O)c2cccc(-c3csc4c(=O)cc(N5CCOCC5)oc34)c2)cc1", "pIC50": 4.90}
{"SMILES RECORD": "Nc1cccc(-c2csc3c(=O)cc(N4CCOCC4)oc23)c1", "pIC50": 5.20}

[Q] Give the reported pIC50 for this molecule. COc1ccc(C#Cc2csc3c(=O)cc(N4CCOCC4)oc23)cc1
[A] 5.07

----------
- Tested on: PC3 cells
- METHOD DESCRIPTION: PC3 prostate cancer cell proliferation (WST)
- Type: cell-based
- CONDITION LABEL: Homo sapiens, PC-3; PC3 cells; read-out: PC3 IC50 Proliferation
EXPERIMENTAL READOUT: IC50

[Q] Give IC50 only, for O=c1cc(N2CCOCC2)oc2c(-c3ccccc3)cccc12 [LY294002, 2-morpholino-8-phenyl-4H-chromen-4-one, reference compound] , using PC3 cells data.
[A] 7.5 to 12.1 µM
